test system: A498; assay: NCI tumour cell line growth inhibition, 48 h
The source made the active and inactive calls. Cut-off read from the data, not from the text of the source: active = GI50 up to about 1.1 µM and inactive = higher.
test_readout: GI50

1) C/C(=N\NC(N)=S)c1ccc(C)cc1C: > 100 µM (inactive)
2) COc1ccc(/C=C2\C(=O)N(C3OC(COC(C)=O)C(OC(C)=O)C(OC(C)=O)C3OC(C)=O)c3ccccc3N=C2N)cc1 (configuration not stated): 28.2 µM (inactive)
3) COC(=O)C1=C(O)C(C(=O)OC)[C@]2(O)[C@H](C(=O)OC)[C@H]1C[C@@H](c1c(Cl)cccc1Cl)[C@H]2C(=O)OC (some centres not stated): 2 µM (inactive)
4) O=c1[nH]c2nccn2c(Cl)c1Br: 76 µM (inactive)
5) CC[C@@]1(O)C(=O)OCc2c1cc1n(c2=O)Cc2c-1nc1ccccc1c2/C=N\NC(=O)C1CCCN1 (some centres not stated): 0.435 µM (active)
6) COC1=CC(=O)C2=C(C1=O)[C@H]1CC[C@]3(C)C(=O)CC[C@H]3[C@@H]1CC2: > 100 µM (inactive)
7) O=C(O)[C@H]1[C@@H](C2CCCCC2)O[C@@H](C2CCCCC2)O[C@H]1C(F)(F)F: 19 µM (inactive)
8) O=C(O)CCc1c2ccc(=O)c(O)c-2oc2c(O)c(O)ccc12: 46.7 µM (inactive)
9) O=c1[nH]c(=O)n(C2CC(O)C(CO)O2)cc1C1=NC1 (configuration not stated): > 100 µM (inactive)
10) COc1cc2ncnc(Nc3cccc(Cl)c3)c2cc1OC [TYRPHOSTIN AG-1478]: 2.54 µM (inactive)
11) CC(Nc1ccc(Cl)cc1)c1ccncc1 (configuration not stated): 81.7 µM (inactive)
12) COC(=O)C(Cc1nc2ccc(Cl)cc2nc1O)/C(=N\N)C(=O)Nc1cc(C)c(Cl)cc1S(=O)(=O)O (configuration not stated): 70.3 µM (inactive)

###

test system: SF-539; test: NCI tumour cell line growth inhibition, 48 h
Calls of active or inactive are those of the source. Cut-off read from the data, not from the text of the source: active = GI50 up to about 1.1 µM and inactive = higher.
Labels: active, inactive

1) CCCCCCCCCc1cc(=O)c2c(O)cc(O)cc2o1: inactive
2) CC(/C=N/N=C1NCCCCN1)=N\N=C1NCCCCN1: inactive
3) O=C1C=C(N2CCN(CCOCCO)CC2)C(=O)c2c(O)ccc(O)c21: inactive
4) CC1=C[C@@H]2[C@@H](CC(CO)=C[C@H]3[C@@H]4C(C)(C)[C@]4(OCC(C)C)[C@H](OCC(C)C)[C@@H](C)[C@]23O)C1=O: active
5) Cc1nc2cc(N)c(F)cc2[nH]1: inactive
6) COC(=O)c1nn(-c2ccccc2)c(=O)cc1N=[N+]=[N-]: inactive
7) CC(C)Oc1ccc2c(c1)OCC1Cc3ccccc3OC21 (configuration not stated): inactive
8) Nc1nc(=O)c2c([nH]1)NCC(CNc1ccc(C(=O)N[C@@H](CCC(=O)O)C(=O)O)cc1)N2C=O (some centres not stated) [LEUCOVORIN CALCIUM]: inactive
9) O=C(CCC(=O)Nc1ccc(Cl)cc1)CC(=O)c1ccc2ccccc2c1: inactive
10) COc1ccc(N2C(=O)C3c4[nH]c5ccc(OC)cc5c4C4CCC(C(C)(C)C)CC4C3C2=O)cc1 (configuration not stated): inactive
11) CCCCCCCCCCCC(=O)CC(=O)c1c(O)cccc1O: inactive
12) COc1cc2c(cc1OCCCOc1cc3c(cc1OC)C(=O)N1CCC[C@H]1CN3)N=C[C@@H]1CCCN1C2=O: active
13) CC(C)CC(=O)NC(C(=O)NC(C(=O)NC(CC(C)C)C(O)CC(=O)NC(C)C(=O)NC(CC(C)C)C(O)CC(=O)O)C(C)C)C(C)C (configuration not stated): inactive
14) N=C(N)Cn1cnc2ccccc21: inactive
15) COC(=O)C1=C(OC)C(=P2(c3ccccc3)CC(c3ccccc3)=C2c2ccccc2)C(C(=O)OC)=C1C(=O)OC (configuration not stated): inactive
16) N#Cc1c(Cl)c2ccccc2n2c1nc1ccccc12: inactive
17) CC1=NNC(=O)[C@H]2[C@H]1CCC1[C@@H]2CC[C@]2(C)[C@@H](O)CC[C@@H]12 (some centres not stated): inactive
18) COc1cc2c(c(OC)c1OC)-c1ccc(SC)c(=O)cc1[C@@H](NCc1ccc(F)cc1)CC2: active
19) O=S(=O)(c1ccccc1)n1c(C(O)c2ccncc2)cc2ccccc21 (configuration not stated): inactive
20) OCCN(CCO)c1ccc2c(C(F)(F)F)cc(C(F)(F)F)nc2n1: inactive
21) Nc1ccn(CCO)c(=O)n1: inactive
22) N#Cc1c(N)nc(Nc2cccc3ccccc23)c(C#N)c1C#N: inactive
23) C/C(=N\NC(N)=S)c1ccc(C)cc1C: inactive
24) CCCc1c2c3ccccc3nc-2nc2ccccn12: inactive
25) CC1CC(C)C(C#N)N(C)c2ccccc21 (configuration not stated): inactive
26) CCNC(=O)/C(=C/c1ccc(OC)cc1)c1cc(OC)c(OC)c(OC)c1: inactive
27) OCCCSCCO: inactive
28) Cn1c2ccccc2c2cc(-c3ccccc3)c3c(c21)C(=O)C=CC3=O: inactive
29) COC(=O)C1=C(O)C(C(=O)OC)[C@]2(O)[C@H](C(=O)OC)[C@H]1C[C@@H](c1ccc([N+](=O)[O-])cc1)[C@H]2C(=O)OC (some centres not stated): inactive
30) O=C1C/C(Br)=C\c2ccccc2-c2ccccc21: inactive
31) O/N=C(\c1ccccc1)N1CCCCC1: inactive
32) CCn1c(=O)c2c3cc(O)ccc3oc2c2ccc(O)cc21: inactive
33) Cc1cccc(C)c1N1C(=O)C(=O)C(c2nc3ccccc3s2)/C(=N\N)C1=O (configuration not stated): inactive
34) CC(C)(C)c1ccccc1N1C(=O)c2ccc3c4c(ccc(c24)C1=O)N(c1ccccc1C(C)(C)C)C3=O: inactive
35) COC(c1ccsc1)C(C#N)(C#N)/N=C/c1ccsc1 (configuration not stated): inactive
36) C=CCN1C(=O)C(=O)N(CC=C)C(=O)C1=O: inactive
37) O=C1C=C(O)C(=Cc2c(O)cc(O)cc2O)C(O)=C1: inactive
38) COc1cc(C(=O)O[C@H]2CCC3CCC2N3C)cc(OC)c1OC (some centres not stated): inactive
39) CC(=O)/C(=C\Nc1c(C)n(C)n(C)c1=O)C(=O)c1ccccc1: inactive
40) CCCCN1C(=O)c2c(Br)sc(Br)c2C1=O: inactive
41) CC/N=C(/C#N)NCC: inactive
42) CCCCCCCCCCCCCCCCCCOC(COP(=O)(O)OCC1OC(n2cc(F)c(=O)[nH]c2=O)CC1O)COP(=O)(O)OCC1OC(n2ccc(N)nc2=O)C(O)C1O (configuration not stated): active

###

system: T47D; experiment: NCI tumour cell line growth inhibition, 48 h
Calls of active or inactive are those of the source. Cut-off read from the data, not from the text of the source: active = GI50 up to about 1.1 µM and inactive = higher.
test_readout: GI50

1) Cn1c(=O)c2c(nc3sc4ccccc4c(=O)n32)n(C)c1=O: > 100 µM (inactive)
2) N#C/C(=C/NC(N)=S)C(N)=O: > 100 µM (inactive)
3) O=C(CP(=O)(c1ccccc1)c1ccccc1)c1cccc(C(=O)CP(=O)(c2ccccc2)c2ccccc2)c1: 76 µM (inactive)
4) O=c1nc(N2CCCCC2)sc2[nH]c3ccccc3c12: > 100 µM (inactive)
5) O=C(O)C(O)C(O)C(O)C(=O)CO (stereo unspecified): > 100 µM (inactive)
6) ClCCCN1CCN(CCCl)CC1: 95.5 µM (inactive)
7) O=c1ssc(Cl)c1Nc1c(Cl)ssc1=O: 9.2 µM (inactive)
8) CCC(C)N1CN(c2ccccc2)C2(CCN(CCCC(=O)c3ccc(F)cc3)CC2)C1=O (stereo unspecified): 1.68 µM (inactive)
9) O=c1[nH]c(-n2[nH]c3c(c2=O)CCCC3)nc(O)c1-c1ccccc1: > 100 µM (inactive)
10) O=C(O)c1ccccc1CC1Cc2cc3c(cc2C1)CCC3: 33 µM (inactive)
11) COC(=O)C1=C(O)C(C(=O)OC)[C@]2(O)[C@H](C(=O)OC)[C@H]1C[C@@H](c1ccc([N+](=O)[O-])cc1)[C@H]2C(=O)OC (stereo partly specified): 38.2 µM (inactive)

###

GI50 values for the compounds below.
system: KM12; assay: NCI tumour cell line growth inhibition, 48 h
Activity calls are given as the source filed them. Rule as the data show it: active = GI50 up to about 1.1 µM and inactive = higher.
test_readout: GI50

1) CC1=C[C@@H]2[C@@H](CC(CO)=C[C@H]3[C@@H]4C(C)(C)[C@]4(OCC(C)C)[C@H](OCC(C)C)[C@@H](C)[C@]23O)C1=O: 2.16 µM (inactive)
2) COc1cc2ncnc(Nc3cccc(Cl)c3)c2cc1OC: 5.73 µM (inactive)
3) C/C=C(/C)C(=O)O[C@H]1[C@H](O)CC(c2ccc3c(c2O)C(=O)C2=C(O)C4(OC)C(=O)C(C(N)=O)=C(O)[C@H](CC(=O)c5ccccc5O)C4CC2[C@@]3(C)OC)O[C@@H]1C (some centres undefined): 0.00647 µM (active)
4) C=CC1CN(C(=O)OCC)N(C(=O)OCC)C1CCc1ccccc1 (centres undefined): 71.6 µM (inactive)
5) NS(=O)(=O)c1nc(S(=O)(=O)O)c2[nH]cnc2n1: > 100 µM (inactive)
6) O=C(NCP(=O)(Oc1ccccc1)Oc1ccccc1)OCc1ccccc1: > 100 µM (inactive)
7) COC(=O)C(NC(=O)c1ccccc1)C(c1c(O)cc(O)cc1O)P(=O)(OC)OC (centres undefined): > 100 µM (inactive)
8) CN(C)CCNC(=O)c1cccc2c(Nc3ccc(S(N)(=O)=O)cc3)c3ccccc3nc12: 1.72 µM (inactive)
9) O=C1C=C(O)C(=Cc2c(O)cc(O)cc2O)C(O)=C1: > 100 µM (inactive)
